- method-notes: CCTE_Shafer_MEA_dev_per_network_spike_spike_number_mean: CCTE's Neural Network Formation Assay for Mean Number of Spikes in a Network Spike, Shafer Lab (AID 2284053)
Activity calls are given as the source filed them. How the source made its calls: active means hit-call score of the fitted dose curve at least 0.9, where 1 is the maximum; inactive means score below 0.9.
Returns: one label drawn from 1 = active, -1 = inactive

A selection of reference data follows.
CC(C)(C)C(=O)CC(=O)C(F)(F)C(F)(F)C(F)(F)F = 1
O=C(O)C(F)(F)C(F)(F)C(F)(F)F = -1
FC(F)(F)C(F)(F)CNCC(F)(F)C(F)(F)F = -1
NC(=O)C(F)(F)C(F)(F)C(F)(F)C(F)(F)F = -1
O=P(O)(O)OCCC(F)(F)C(F)(F)C(F)(F)C(F)(F)C(F)(F)C(F)(F)F = -1
O=C(O)C(F)(F)C(F)(F)C(F)(F)C(F)(F)C(F)(F)C(F)(F)C(F)(F)C(F)(F)C(F)(F)C(F)F = -1
O=C(O)C=C(C(F)(F)F)C(F)(F)F = -1
FC(F)(F)C(F)(F)C(F)(F)C(F)(F)C(F)(F)C(F)(F)CC1CO1 (stereo unspecified) = -1
O=S(=O)(OCC(F)F)C(F)(F)F = -1
OC[C@@H](O)[C@@H](O)[C@H](O)[C@@H](O)CO = -1

Call for entry `OCC(F)(F)C(F)(F)C(F)(F)C(F)(F)C(F)(F)C(F)F` :
-1

* * *

- Read-out: Monokine induced gamma interferon (MIG), CXCL9 (gene 4283)
- method-notes: BSK_BE3C_MIG: BioMAP Diversity Plus: BE3C Assay for Monokine induced gamma interferon (MIG) Biomarker Activity (AID 2283035)
- stated-conditions: primary human bronchial epithelial cells; actives raise or lower the signal
Calls of active or inactive are those of the source. Rule for the calls: active = hit-call score of the fitted dose curve at least 0.9, where 1 is the maximum; inactive = score below 0.9.
Returns: one label drawn from Y = active, N = inactive

A selection of reference data follows.
O=C(O)C(F)(F)C(F)(F)C(F)(F)C(F)(F)C(F)(F)C(F)(F)C(F)(F)C(F)(F)C(F)(F)C(F)(F)C(F)(F)C(F)(F)C(F)(F)F = N
CCCCCCCCCCCCCCCC[N+](C)(C)Cc1ccccc1 = Y
CO[Si](OC)(c1ccccc1)c1ccccc1 = N
FC(F)(Br)C(F)(F)C(F)(F)C(F)(F)C(F)(F)C(F)(F)Br = N
C=C(C)C(=O)OCCC(F)(F)C(F)(F)C(F)(F)C(F)(F)C(F)(C(F)(F)F)C(F)(F)F = N
CC(=O)Nc1ccc(N=Nc2cc(C)ccc2O)cc1 = N
O=C(O)C=C(C(F)(F)F)C(F)(F)F = N
O=C(O)C(F)(OC(F)(F)C(F)(OC(F)(F)C(F)(F)C(F)(F)F)C(F)(F)F)C(F)(F)F (stereo not drawn) = N
N=C(N)C(F)(F)C(F)(F)C(F)(F)C(F)(F)C(F)(F)C(F)(F)C(F)(F)F = N
O=S(=O)(OCCOC(F)(F)F)C(F)(F)F = N

Call for entry `FC(F)(F)C(F)(F)C(F)(F)C(F)(F)C(F)(F)C(F)(F)C(F)(F)C(F)(F)CCS` :
N

Subsequent entry: `O=S(=O)(OCC(F)F)C(F)(F)F`
N

Subsequent entry: `OCC(F)(F)C(F)(F)C(F)(F)C(F)F`
N

* * *

- assay-system: Glucocorticoid receptor (Homo sapiens)
- method-notes: ATG_GR_TRANS: Attagene TRANS-FACTORIAL HepG2 Assay for human Glucocorticoid Receptor (GR) (AID 2282978);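 further: activators score as hits since higher reporter transcript over DMSO is fitted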
- stated-conditions: HepG2 Attagene TRANS GR reporter, mRNA transcription
Records with an inconclusive call do not appear. Calls of active or inactive are those of the source. How the source made its calls: active means hit-call score of the fitted dose curve at least 0.9, where 1 is the maximum; inconclusive means response in the unintended direction; inactive means score below 0.9.
reported-endpoint: outcome

Worked set:
Cc1ccc(S(=O)(=O)OCC(F)(F)C(F)(F)C(F)(F)C(F)(F)C(F)(F)C(F)F)cc1 = inactive
O=C(O)C(F)(F)C(F)(F)F = inactive
C=C(C)C(=O)OCC(F)(F)C(F)(F)C(F)(F)F = inactive
O=S(=O)(O)C(F)(F)C(F)(F)C(F)(F)C(F)(F)C(F)(F)C(F)(F)C(F)(F)F = inactive
CC/C=C\CCOC(C)=O = inactive

Note: attention shifts to another entry.
outcome of `CC/C=C\CCOC(=O)c1ccccc1` on Glucocorticoid receptor (Homo sapiens)?
inactive

* * *

- Read-out: Matrix Metallopeptidase 1 (MMP1), MMP1 (gene 4312)
- method-notes: BSK_MyoF_MMP1: BioMAP Diversity Plus: MyoF Assay for Matrix Metallopeptidase 1 (MMP1) Biomarker Activity (AID 2284268)
- stated-conditions: primary human lung fibroblasts
Activity calls are given as the source filed them. How the source made its calls: active means hit-call score of the fitted dose curve at least 0.9, where 1 is the maximum; inactive means score below 0.9.
Returns: one label drawn from t = active, f = inactive

A selection of reference data follows.
CCCCCCCCC(F)(F)C(F)(F)C(F)(F)C(F)(F)C(F)(F)C(F)(F)F = f
O=S(=O)(OCCOC(F)(F)F)C(F)(F)F = f
CCCCNc1ccccc1 = f
CCc1c(Br)c(Br)c(Br)c(Br)c1Br = t
C=CC(F)(F)C(F)(F)C(F)(F)C(F)(F)C(F)(F)C(F)(F)C(F)(F)C(F)(F)F = f

Call for entry CC(CCl)OP(=O)(OC(C)CCl)OC(C)CCl (centres undefined) :
f

Subsequent entry: `COC(=O)CCC(F)(F)C(F)(F)C(F)(F)C(F)(F)F`
f

Subsequent entry: `CCc1ccc(C(c2ccc(CC)cc2)C(Cl)Cl)cc1`
t

Subsequent entry: `CCCCOCCOCCOC(=O)CCCCC(=O)OCCOCCOCCCC`
f

* * *

- Read-out: TIMP metallopeptidase inhibitor 2 (TIMP2), TIMP2 (gene 7077)
- method-notes: BSK_hDFCGF_TIMP2: BioMAP Diversity Plus: hDFCGF Assay for TIMP metallopeptidase inhibitor 2 (TIMP2) Biomarker Activity (AID 2284289)
- stated-conditions: primary human foreskin fibroblasts
Calls of active or inactive are those of the source. How the source made its calls: active means hit-call score of the fitted dose curve at least 0.9, where 1 is the maximum; inactive means score below 0.9.
reported-endpoint: outcome

Worked set:
FC(F)(F)C(F)(F)C(F)(F)C(F)(F)C(F)(F)C(F)(F)C(F)(F)Br = inactive
O=C(O)C(F)(F)C(F)(F)C(F)(F)C(F)(F)C(F)(F)C(F)(F)C(F)(F)C(F)(F)C(F)(F)C(F)F = inactive
O=C(O)C(F)(F)C(F)(F)OC(F)(F)F = inactive
O=C(O)C(F)(F)C(F)(F)C(F)(F)C(F)(F)C(F)(F)C(F)(F)C(F)(F)C(F)(F)C(F)(F)C(F)(F)C(F)(F)C(F)(F)F = inactive

Note: attention shifts to another entry.
Fill in: outcome of `O=S(=O)(O)C(F)(F)C(F)(F)C(F)(F)C(F)(F)C(F)(F)C(F)(F)C(F)(F)F` is ___
inactive

* * *

- method-notes: Tanguay_ZF_120hpf_EDEM: Oregon State University Tanguay Lab 120 Hour Post-fertilization zebrafish Assay for Edema Malformation (AID 2284400)
Activity calls are given as the source filed them. Rule for the calls: active = hit-call score of the fitted dose curve at least 0.9, where 1 is the maximum; inactive = score below 0.9.
reported-endpoint: outcome

Worked set:
FC(F)(F)C(F)(F)C(F)(F)N(C(F)(F)C(F)(F)C(F)(F)F)C(F)(F)C(F)(F)C(F)(F)F = inactive
O=S(=O)(OCCOC(F)(F)F)C(F)(F)F = inactive
COC(=O)CCC(F)(F)C(F)(F)C(F)(F)C(F)(F)F = inactive
O=C(O)C(F)(OC(F)(F)C(F)(OC(F)(F)C(F)(F)C(F)(F)F)C(F)(F)F)C(F)(F)F (stereo not drawn) = inactive
FC(F)(F)C(F)(F)C(F)(F)C(F)(F)C(F)(F)C(F)(F)C(F)(F)Br = inactive

Fill in: outcome of `OCC(F)(F)C(F)(F)C(F)(F)C(F)(F)C(F)(F)C(F)F` is ___
inactive

Subsequent entry: `O=C(CC(=O)C(F)(F)C(F)(F)F)C(F)(F)F`
inactive

Subsequent entry: `O=P(O)(O)OCCC(F)(F)C(F)(F)C(F)(F)C(F)(F)C(F)(F)C(F)(F)F`
inactive

* * *

- assay-system: Cellular tumor antigen p53 (Homo sapiens) (UniProt P04637)
- Sequence (P04637 whole entry, looked up): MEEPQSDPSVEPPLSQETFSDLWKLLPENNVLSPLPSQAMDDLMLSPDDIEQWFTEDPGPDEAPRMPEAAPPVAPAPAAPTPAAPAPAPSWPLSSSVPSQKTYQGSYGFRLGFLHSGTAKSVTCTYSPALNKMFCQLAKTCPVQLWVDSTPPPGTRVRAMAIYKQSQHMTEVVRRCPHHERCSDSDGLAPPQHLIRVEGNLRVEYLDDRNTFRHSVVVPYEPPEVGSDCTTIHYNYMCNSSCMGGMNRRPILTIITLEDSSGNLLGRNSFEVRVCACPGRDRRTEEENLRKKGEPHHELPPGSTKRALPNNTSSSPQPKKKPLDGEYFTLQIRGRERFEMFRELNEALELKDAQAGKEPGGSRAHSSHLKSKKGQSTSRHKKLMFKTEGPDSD
- method-notes: TOX21_p53_BLA_p5_ratio: Tox21 HCT-116 p53 Agonism Beta-lactamase Assay, Ratio, Phase 5 (AID 2283599)
Results filed as inconclusive are left out. The source made the active and inactive calls. The calls were made as follows: active = hit-call score of the fitted dose curve at least 0.9, where 1 is the maximum; inconclusive = response in the unintended direction; inactive = score below 0.9.
reported-endpoint: outcome

Worked set:
c1ccc(B(c2ccccc2)c2ccccc2)cc1 = inactive
CCCCCC=O = inactive
Nc1ccc(S(=O)(=O)Nc2nccs2)cc1 = inactive
CCCCCCOC(=O)c1ccccc1O = inactive

Note: attention shifts to another entry.
outcome of `Cc1ccc(S(=O)(=O)NCl)cc1` on Cellular tumor antigen p53 (Homo sapiens) (UniProt P04637)?
inactive

* * *

- method-notes: CCTE_Shafer_MEA_dev_inter_network_spike_interval_mean: CCTE's Neural Network Formation Assay for Mean Inter-network Spike Interval, Shafer Lab (AID 2284047)
The source made the active and inactive calls. How the source made its calls: active means hit-call score of the fitted dose curve at least 0.9, where 1 is the maximum; inactive means score below 0.9.
reported-endpoint: outcome

Worked set:
C=CC(=O)OCC(F)(F)C(F)(F)C(F)(F)C(F)(F)COC(=O)C=C = inactive
CC(CCl)OP(=O)(OC(C)CCl)OC(C)CCl (stereo unspecified) = inactive
OCC(F)(F)C(F)(F)C(F)(F)C(F)(F)C(F)(F)C(F)F = inactive
O=S(=O)(OCCOC(F)(F)F)C(F)(F)F = inactive
Cc1ccc(S(=O)(=O)OCC(F)(F)C(F)(F)C(F)(F)C(F)(F)C(F)(F)C(F)F)cc1 = inactive

Fill in: outcome of `N=C(N)C(F)(F)C(F)(F)C(F)(F)C(F)(F)C(F)(F)C(F)(F)C(F)(F)F` is ___
inactive

Subsequent entry: `FC(F)(F)C(F)(F)C(F)(F)C(F)(F)C(F)(F)CCI`
inactive

Subsequent entry: `O=C(O)C(F)(F)C(F)(F)C(F)(F)F`
inactive

Subsequent entry: `FC(F)(F)C(F)(F)CNCC(F)(F)C(F)(F)F`
inactive

Subsequent entry: `O=S(=O)(OCC(F)F)C(F)(F)F`
inactive

Subsequent entry: `OC[C@@H](O)[C@@H](O)[C@H](O)[C@@H](O)CO`
inactive
